Source: patent US20210188980A1

Target: T1, recombinant human LAG-3-his protein (Novoprotein) (human, UniProt P18627 23-450)
T1 construct: Bought; also called huLAG-3; not shown: His tag
T1 sequence (looked up): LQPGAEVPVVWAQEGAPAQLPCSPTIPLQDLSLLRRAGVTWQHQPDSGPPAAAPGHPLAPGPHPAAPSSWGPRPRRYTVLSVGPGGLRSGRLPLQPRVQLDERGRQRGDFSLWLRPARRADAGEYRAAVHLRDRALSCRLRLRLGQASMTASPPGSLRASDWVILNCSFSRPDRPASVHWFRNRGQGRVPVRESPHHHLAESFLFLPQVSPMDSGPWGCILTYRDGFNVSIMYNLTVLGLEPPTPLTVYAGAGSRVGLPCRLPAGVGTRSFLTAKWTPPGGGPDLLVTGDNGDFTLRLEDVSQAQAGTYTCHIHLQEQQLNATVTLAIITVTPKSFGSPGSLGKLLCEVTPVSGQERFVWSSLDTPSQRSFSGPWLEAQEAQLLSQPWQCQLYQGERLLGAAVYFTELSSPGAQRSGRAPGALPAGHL
Test: BLI Octet, Ab on AHC sensor, huLAG-3-his; test group 1
Reported koff values for a set of binders
Enter your answer as a number in s⁻¹; do not include the unit.

Example entries begin here.
HumAb747-46 (antibody, human IgG1, V domains shown, humanized mAb747; human IgG1/kappa constant domains) VH: EVQLVQSGAEVKKPGATVKLSCTASDFNIKDDYMHWVKQAPGKGLEWIGWIVPENGNTEYASKFQGRATITADTSTNTAYLELSSLRSEDTAVYYCTVYGDYWGQGTTVTVSS VL: DIQMTQSPSSLSASVGDRVTITCRASQEISGYLSWLQQKPGKAIKSLIYAASTLDSGVPSRFSGSRSGTDFTLTISSLQPEDFATYYCLQYASYPLTFGQGTKLEIK
0.0109
mAb747c (antibody, V domains shown, also called mAb717c) VH: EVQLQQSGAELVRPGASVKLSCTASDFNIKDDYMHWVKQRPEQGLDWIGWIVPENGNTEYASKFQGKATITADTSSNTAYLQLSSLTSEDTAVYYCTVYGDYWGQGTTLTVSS VL: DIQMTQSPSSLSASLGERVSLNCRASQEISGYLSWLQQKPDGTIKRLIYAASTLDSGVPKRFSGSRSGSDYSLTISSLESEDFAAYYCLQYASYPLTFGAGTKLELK
0.00136
HumAb747-48 (antibody, human IgG1, V domains shown, humanized mAb747; human IgG1/kappa constant domains) VH: EVQLVQSGAEVKKPGATVKLSCKASDFNIKDDYMHWVQQAPGKGLEWIGWIVPENGNTEYASKFQGRVTITADTSTDTAYLELSSLRSEDTAVYYCTVYGDYWGQGTTVTVSS VL: DIQMTQSPSSLSASVGDRVTITCRASQEISGYLSWLQQKPGKAIKRLIYAASTLDSGVPSRFSGSRSGTDFTLTISSLQPEDFATYYCLQYASYPLTFGQGTKLEIK
0.00803

// next item, koff requested
## Input Fill in reported koff for this entry: HumAb747-47 (antibody, human IgG1, V domains shown, humanized mAb747; human IgG1/kappa constant domains) VH: EVQLVQSGAEVKKPGATVKISCKVSDFNIKDDYMHWVQQAPGKGLEWIGWIVPENGNTEYASKFQGRVTITADTSTDTAYLELSSLRSEDTAVYYCTVYGDYWGQGTTVTVSS VL: DIQMTQSPSSLSASVGDRVTITCRASQEISGYLSWLQQKPGKAIKRLIYAASTLDSGVPSRFSGSRSGTDFTLTISSLQPEDFATYYCLQYASYPLTFGQGTKLEIK
## Output 0.0144
